# Assay explanation: Metabolic stability in mouse hepatic microsomes at 1 uM after 30 mins at 37 degC
# Measurement conditions: liver microsomes
Measure name: remaining at 0.5 h, 1 µM

Query string: Entry `CN1CCN(c2ccc(C(=O)/C=C/c3cccc(/C=C/C(=O)NO)n3)cc2)CC1` : reported remaining at 0.5 h, 1 µM = ?
Result string: 19%

Query string: Entry `CN1CCN(c2ccccc2C(=O)/C=C/c2ccc(/C=C/C(=O)NO)cc2)CC1` : reported remaining at 0.5 h, 1 µM = ?
Result string: 34%

Query string: Entry `CN1CCN(c2ccccc2C(=O)/C=C/c2ccc(/C=C/C(=O)NO)nc2)CC1` : reported remaining at 0.5 h, 1 µM = ?
Result string: 61%

Query string: Entry `CN1CCN(Cc2ccccc2C(=O)/C=C/c2ccc(/C=C/C(=O)NO)nc2)CC1` : reported remaining at 0.5 h, 1 µM = ?
Result string: 53%

Query string: Entry `O=C(/C=C/c1cccc(/C=C/C(=O)c2ccccc2)n1)NO` : reported remaining at 0.5 h, 1 µM = ?
Result string: 11%

Query string: Entry `CN1CCN(Cc2cccc(C(=O)/C=C/c3ccc(/C=C/C(=O)NO)nc3)c2)CC1` : reported remaining at 0.5 h, 1 µM = ?
Result string: 46%
